# EXPERIMENTAL_SYSTEM: Recombinant human IL-1β (BioLegend 579404) (human, UniProt P01584 117-269)
# ASSAY_PROCEDURE: cell-based or functional assay
Starred links: 1 amine or outer side, 2 acyl side, 3 side chain; linkers in the order of their positions; H or OH if unused. Non-standard residues stand in square brackets, D forms with d. Primed or numbered codes have the meaning given here. No end group written: not given here. dProc4Bn4Br = (2R,4R)-4-[(4-bromophenyl)methyl]pyrrolidine-2-carboxylic acid, O=C([C@H]1C[C@@H](Cc2ccc(Br)cc2)CN1[*:1])[*:2]; dProc3CH24Pal = (2R,3S)-3-(4-pyridylmethyl)pyrrolidine-2-carboxylic acid, O=C([C@H]1[C@@H](Cc2ccncc2)CCN1[*:1])[*:2]; dPro(4R-(4-pyridylmethyl)) = O=C(O)[C@H]1C[C@@H](Cc2ccncc2)CN1; dPro(3S-(4-Br-benzyl)) = O=C(O)[C@@H]1NCC[C@@H]1Cc1ccc(Br)cc1; Trp(βS-Me,4-F) = C[C@@H](c1c[nH]c2cccc(F)c12)[C@H](N)C(=O)O; Bip(4'-COOH) = N[C@@H](Cc1ccc(-c2ccc(C(=O)O)cc2)cc1)C(=O)O; Ala(1-bicyclo(1.1.1)pentyl) = N[C@@H](CC12CC(C1)C2)C(=O)O; dPro(4R-Bzl(4-F)) = O=C(O)[C@H]1C[C@@H](Cc2ccc(F)cc2)CN1; 1Nal(3S-Me) = C[C@@H](c1cccc2ccccc12)[C@H](N)C(=O)O; Trp(4-Cl) = N[C@@H](Cc1c[nH]c2cccc(Cl)c12)C(=O)O; Ala(morpholin-4-yl) = N[C@@H](CN1CCOCC1)C(=O)O; Ala(pyrimidin-5-yl) = N[C@@H](Cc1cncnc1)C(=O)O; Phe(4-COOH) = N[C@@H](Cc1ccc(C(=O)O)cc1)C(=O)O; Pro(cis-4-F) = O=C(O)[C@@H]1C[C@H](F)CN1; Ala(4-THP) = N[C@@H](CC1CCOCC1)C(=O)O; Dap(CONH2) = NC(=O)NC[C@H](N)C(=O)O; cisHyp = O=C(O)[C@@H]1C[C@H](O)CN1; d(αMeD) = C[C@@](N)(CC(=O)O)C(=O)O; 4Pal = N[C@@H](Cc1ccncc1)C(=O)O; αMeD = C[C@](N)(CC(=O)O)C(=O)O; d(αMeS) = C[C@@](N)(CO)C(=O)O; αMeK = C[C@](N)(CCCCN)C(=O)O; dαMeDab′ = not defined here; Dab = NCC[C@H](N)C(=O)O; Aib = CC(C)(N)C(=O)O
VALUE_KIND: MRC5 IC50 (nM)
# unit: nM | format: bare number

Before answering, review these 8 worked examples.
BINDER: [Bip(4'-COOH)][Ala(1-bicyclo(1.1.1)pentyl)][Phe(4-COOH)]G[cisHyp][Trp(βS-Me,4-F)][Aib]SW[d(αMeS)][Ala(pyrimidin-5-yl)]Q[Dab]G[dPro(4R-(4-pyridylmethyl))] (lactam (positions not given here); also: macrolactam ring, closure sites not given here) [SEQ ID NO: 190]
UNIT_SPEC: nM
MRC5 IC50: 0.019
--
BINDER: [Bip(4'-COOH)][4Pal][Phe(4-COOH)]G[Pro(cis-4-F)][Trp(βS-Me,4-F)][Aib]S[Trp(4-Cl)][d(αMeD)][Ala(pyrimidin-5-yl)]Q[Dab]G[dProc3CH24Pal] (lactam (positions not given here); also: macrolactam, ring places not given here) [SEQ ID NO: 225]
UNIT_SPEC: nM
MRC5 IC50: 0.019
--
BINDER: cyclo([Bip(4'-COOH)][Ala(1-bicyclo(1.1.1)pentyl)][Phe(4-COOH)]G[Pro(cis-4-F)][Trp(βS-Me,4-F)][Aib]SW[αMeK][Ala(morpholin-4-yl)]QSG[dPro(4R-Bzl(4-F))]) (ring closure inferred; not fully specified (bridges); printed as Bip4CO2H-AlaPent-Phe4COOH-G-Proc4F-SbMeW4F-Aib-S-W-aMeK-AlaMph-Q-S-G-dProc4Bn4F, cyclic (macrolactam)) [SEQ ID NO: 173]
UNIT_SPEC: nM
MRC5 IC50: 0.037
--
BINDER: cyclo([Bip(4'-COOH)][4Pal][Phe(4-COOH)]G[cisHyp][Trp(βS-Me,4-F)][Aib]SW[Aib][Ala(pyrimidin-5-yl)]Q[Dab]G[dPro(4R-Bzl(4-F))]) (ring closure inferred; not fully specified (bridges); printed as Bip4CO2H-4Pal-Phe4COOH-G-Proc4OH-SbMeW4F-Aib-S-W-Aib-PyrimAla-Q-Dab-G-dProc4Bn4F) [SEQ ID NO: 127]
UNIT_SPEC: nM
MRC5 IC50: 0.013
--
BINDER: cyclo([Bip(4'-COOH)][4Pal][Phe(4-COOH)]G[Pro(cis-4-F)][Trp(βS-Me,4-F)][Aib]EW[Aib][Ala(pyrimidin-5-yl)]Q[Dab]G[dProc4Bn4Br]) (ring closure inferred; not fully specified (bridges); printed as Bip4CO2H-4Pal-Phe4COOH-G-Proc4F-sbMeW4F-Aib-E-W-Aib-PyrimAla-Q-Dab-G-dProc4Bn4Br, cyclic (macrolactam)) [SEQ ID NO: 143]
UNIT_SPEC: nM
MRC5 IC50: 0.026
--
BINDER: cyclo([Bip(4'-COOH)][4Pal][Phe(4-COOH)]G[cisHyp][Trp(βS-Me,4-F)][Aib]SW[αMeD][Ala(4-THP)]Q[Dab]G[dPro(4R-(4-pyridylmethyl))]) (ring closure inferred; not fully specified (bridges); printed as Bip4CO2H-4Pal-Phe4COOH-G-Proc4OH-SbMeW4F-Aib-S-W-aMeD-AlaTHP4-Q-Dab-G-dProc4CH24Pal, cyclic (macrolactam)) [SEQ ID NO: 201]
UNIT_SPEC: nM
MRC5 IC50: 0.019
--
BINDER: cyclo([Bip(4'-COOH)][4Pal][Phe(4-COOH)]G[Pro(cis-4-F)][Trp(βS-Me,4-F)][dαMeDab′]SW[Aib][Ala(pyrimidin-5-yl)]Q[Dab]G[dPro(4R-Bzl(4-F))]) (ring closure inferred; not fully specified (bridges); printed as Bip4CO2H-4Pal-Phe4COOH-G-Proc4F-SbMeW4F-daMeDab-S-W-Aib-PyrimAla-Q-Dab-G-dProc4Bn4F) [SEQ ID NO: 131]
UNIT_SPEC: nM
MRC5 IC50: 0.019
--
BINDER: cyclo([Bip(4'-COOH)][4Pal][Phe(4-COOH)]G[Pro(cis-4-F)][1Nal(3S-Me)][Aib]EW[Aib][Ala(pyrimidin-5-yl)]Q[Dab]G[dPro(3S-(4-Br-benzyl))]) (ring closure inferred) [SEQ ID NO: 153]
UNIT_SPEC: nM
MRC5 IC50: 0.019

Noted for [Bip(4'-COOH)][4Pal][Phe(4-COOH)]G[Pro(cis-4-F)][Trp(βS-Me,4-F)][Aib]S[Trp(4-Cl)][d(αMeD)][Ala(pyrimidin-5-yl)]Q[Dap(CONH2)]G[dProc3CH24Pal] (lactam (positions not given here); also: macrolactam, ring places not given here) [SEQ ID NO: 226] : its MRC5 IC50 reads 0.022

Noted for [Bip(4'-COOH)][Ala(1-bicyclo(1.1.1)pentyl)][Phe(4-COOH)]G[cisHyp][Trp(βS-Me,4-F)][Aib]SW[d(αMeS)][Ala(4-THP)]Q[Dab]G[dPro(4R-(4-pyridylmethyl))] (lactam (positions not given here); also: macrolactam ring, closure sites not given here) [SEQ ID NO: 192] : its MRC5 IC50 reads 0.021
